molecular target: Stromelysin-1 (Homo sapiens, UniProt P08254); assay: Inhibition of MMP3
Sequence (P08254 whole entry): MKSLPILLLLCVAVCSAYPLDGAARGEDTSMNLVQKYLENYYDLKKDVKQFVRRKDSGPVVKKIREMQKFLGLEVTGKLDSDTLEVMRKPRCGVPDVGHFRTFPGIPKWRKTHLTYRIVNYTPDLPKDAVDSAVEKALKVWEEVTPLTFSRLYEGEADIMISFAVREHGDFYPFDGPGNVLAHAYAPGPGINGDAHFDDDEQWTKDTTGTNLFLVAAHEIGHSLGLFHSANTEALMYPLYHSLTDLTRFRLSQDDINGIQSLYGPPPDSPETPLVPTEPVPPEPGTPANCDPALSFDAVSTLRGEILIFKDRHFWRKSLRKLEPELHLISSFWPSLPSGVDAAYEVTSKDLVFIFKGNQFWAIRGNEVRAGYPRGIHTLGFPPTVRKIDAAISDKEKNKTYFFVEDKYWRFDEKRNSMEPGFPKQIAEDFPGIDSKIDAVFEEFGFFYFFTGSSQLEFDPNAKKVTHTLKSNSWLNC
pKi: −log10 of the molar value.
experimental.endpoint: pKi

C[C@@H](NC(=O)[C@H](O)[C@@H](O)C(=O)N1CCC[C@@H]1c1csc(NC2CC2)n1)c1ccc(-n2cccn2)cc1: < 4.40

----------
AUC at 6 h values for the compounds below.
experiment: AUC in Sprague-Dawley rat at 10 mg/kg, po measured within 6 hrs after post-dosing by LC/MS/MS analysis; format: ADME, organism-based; set-up: time < 6 hr, dose 10 mg/kg, route oral; settings: plasma
experimental.endpoint: AUC at 6 h (µM·h)

C[C@@H](NC(=O)[C@H](O)[C@@H](O)C(=O)N1CCC[C@@H]1c1csc(NC2CC2)n1)c1ccc(-n2cccn2)cc1: 134
C[C@@H](NC(=O)[C@H](O)[C@@H](O)C(=O)N1CCC[C@@H]1c1cc[nH]n1)c1ccc(-n2cccn2)cc1: 0.578
C[C@@H](NC(=O)[C@H](O)[C@@H](O)C(=O)N1CCC[C@@H]1c1csc(Nc2ccccc2F)n1)c1ccc(-n2cccn2)cc1: 0.13
C[C@@H](NC(=O)[C@H](O)[C@@H](O)C(=O)N1CC[C@H](O)C1c1cccc(Cl)c1)c1ccc(-n2cccn2)cc1 (mixture of isomers): 4.76
C[C@@H](NC(=O)[C@H](O)[C@@H](O)C(=O)N1CCC[C@@H]1c1csc(N2CCCCC2)n1)c1ccc(-n2cccn2)cc1: 1.96
C[C@@H](NC(=O)[C@H](O)[C@@H](O)C(=O)N1CCC[C@]1(C)c1cccc(Cl)c1)c1ccc(-n2cccn2)cc1: 1.47
CNc1nc([C@H]2CCCN2C(=O)[C@H](O)[C@@H](O)C(=O)N[C@H](C)c2ccc(-n3cccn3)cc2)c(C)s1: 5.44
CNc1nc([C@H]2c3ccccc3CN2C(=O)[C@H](O)[C@@H](O)C(=O)N[C@H](C)c2ccc(-n3cccn3)cc2)cs1: 1.13
CCNc1nc([C@H]2C[C@@H](C)CN2C(=O)[C@H](O)[C@@H](O)C(=O)N[C@H](C)c2ccc(-n3cccn3)cc2)cs1: 5.62
CNc1nc([C@H]2C[C@H]3C[C@H]3N2C(=O)[C@H](O)[C@@H](O)C(=O)N[C@H](C)c2ccc(-n3cccn3)cc2)cs1: 0.925
C[C@@H](NC(=O)[C@H](O)[C@@H](O)C(=O)N1CC=C[C@@H]1c1cccc(Cl)c1)c1ccc(-n2cccn2)cc1: 0.461
CC(C)Nc1nc([C@H]2CCCN2C(=O)[C@H](O)[C@@H](O)C(=O)N[C@H](C)c2ccc(-n3cccn3)cc2)cs1: 115
CCNc1nc([C@H]2CCCN2C(=O)[C@H](O)[C@@H](O)C(=O)N[C@H](C)c2ccc(-n3cccn3)cc2)cs1: 52
CNc1nc(C2(C)CCCN2C(=O)[C@H](O)[C@@H](O)C(=O)N[C@H](C)c2ccc(-n3cccn3)cc2)cs1 (mixture of isomers): 2.44
CNc1nc([C@H]2CCCN2C(=O)[C@H](O)[C@@H](O)C(=O)N[C@H](C)c2ccc(-n3cccn3)cc2)cs1: 30.7
C[C@@H](NC(=O)[C@H](O)[C@@H](O)C(=O)N1CCC[C@@H]1c1ccn(C)n1)c1ccc(-n2cccn2)cc1: 2.92
CCCNc1nc([C@H]2CCCN2C(=O)[C@H](O)[C@@H](O)C(=O)N[C@H](C)c2ccc(-n3cccn3)cc2)cs1: 48.3
CNc1nc([C@H]2C=CCN2C(=O)[C@H](O)[C@@H](O)C(=O)N[C@H](C)c2ccc(-n3cccn3)cc2)cs1: 1.81
CNc1nc([C@H]2CCCN2C(=O)[C@H](O)[C@@H](O)C(=O)N[C@H](C)c2ccc(-n3cccn3)cc2)c(C2CC2)s1: 11.4
CNc1nc([C@H]2CCCN2C(=O)[C@H](O)[C@@H](O)C(=O)N[C@H](C)c2ccc(-n3cccn3)cc2)c(C#N)s1: 0.154
C[C@@H](NC(=O)[C@H](O)[C@@H](O)C(=O)N1CCC[C@@H]1c1csc(NC2CCC2)n1)c1ccc(-n2cccn2)cc1: 31.4
C[C@@H](NC(=O)[C@H](O)[C@@H](O)C(=O)N1CCC[C@@H]1c1cccc(Cl)c1)c1ccc(-n2cccn2)cc1: 2.95
COc1cc2c(cc1OC)C(c1ccccc1)N(C(=O)[C@H](O)[C@@H](O)C(=O)N[C@H](C)c1ccc(-n3cccn3)cc1)CC2 (mixture of isomers): 1.24
CNc1nc([C@H]2CC(F)(F)CN2C(=O)[C@H](O)[C@@H](O)C(=O)N[C@H](C)c2ccc(-n3cccn3)cc2)cs1: 1.42
C[C@@H](NC(=O)[C@H](O)[C@@H](O)C(=O)N1C[C@H](O)CC1c1cccc(Cl)c1)c1ccc(-n2cccn2)cc1 (mixture of isomers): 3.91
CNc1nc([C@H]2c3cc(F)ccc3CN2C(=O)[C@H](O)[C@@H](O)C(=O)N[C@H](C)c2ccc(-n3cccn3)cc2)cs1: 0.237
C[C@@H](NC(=O)[C@H](O)[C@@H](O)C(=O)N1CCC[C@@H]1c1csc(N)n1)c1ccc(-n2cccn2)cc1: 2.28

Recorded values, source ChEMBL document CHEMBL1770127.
